- Test system: PC-3
- Test: Antiproliferative activity against human PC3 cells treated for 24 hrs measured after 72 hrs by MTT assay
- Assay type: functional, cell-based
Listed below: pIC50 values for each entry.
# pIC50 = -log10(concentration in molar units)

{"Compound": "CN1c2ccccc2C(=O)N2CCc3c(n(CCCOCCCOC(=O)CCCc4ccc(N(CCCl)CCCl)cc4)c4ccccc34)C21 (centres undefined)", "Target of assay": "PC-3", "Reported": 4.56}

Kindly consider the entry below.
The recorded pIC50 for CN1c2ccccc2C(=O)N2CCc3c(n(CCCO)c4ccccc34)C21 (centres undefined) is 4.56
